Assay: Toxicity liver stage against HepG2, at 10uM
Assay type: cell-based
Parameters: test concentration 10 uM, cell line HepG2-A16-CD81EGFP
Conditions: human, HepG2-A16-CD81EGFP cells; read-out: INHIBITION
# cytotoxicity at 10 µM per entry
readout.kind: cytotoxicity at 10 µM (%)

[
  {
    "molecule": "Cc1n[nH]c(C)c1NC(=O)CN1CCCC1c1noc(C2CC2)n1 (stereo unspecified)",
    "readout.kind": "cytotoxicity at 10 µM",
    "value.reported": 2.94
  },
  {
    "molecule": "Cc1nc(O)cc(CN2CCC=C(CN(C)C(=O)c3ccco3)C2)n1",
    "readout.kind": "cytotoxicity at 10 µM",
    "value.reported": 8.82
  },
  {
    "molecule": "CCC(SC)C(=O)N1CCC(n2ccnn2)CC1 (stereo unspecified)",
    "readout.kind": "cytotoxicity at 10 µM",
    "value.reported": -41.5
  },
  {
    "molecule": "COCCO[C@H]1COCCN(Cc2ccc(OC)cc2)C1",
    "readout.kind": "cytotoxicity at 10 µM",
    "value.reported": 9.71
  },
  {
    "molecule": "CN1C(=O)[C@@H]2CC[C@H]1CN(S(=O)(=O)c1ccc(Cl)cc1Cl)C2",
    "readout.kind": "cytotoxicity at 10 µM",
    "value.reported": 1.47
  },
  {
    "molecule": "COc1ccc(OC)c(C(O)CNC(=O)Nc2cccnc2OC)c1 (stereo unspecified)",
    "readout.kind": "cytotoxicity at 10 µM",
    "value.reported": -22.4
  }
]

----------
# cytotoxicity at 10 µM per entry
Assay: Toxicity liver stage against HepG2, at 10uM
Assay type: cell-based
Set-up: test concentration 10 uM, cell line HepG2-A16-CD81EGFP
Details: human, HepG2-A16-CD81EGFP cells; read-out: INHIBITION
readout.kind: cytotoxicity at 10 µM (%)

[
  {
    "compound": "COCC(=O)N1CC[C@@H]2CN(Cc3cccnc3)S(=O)(=O)[C@@H]2CC1",
    "value.reported": -113
  },
  {
    "compound": "CO[C@@H]1CCN(Cc2nccn2C)[C@H]1Cc1cccnc1",
    "value.reported": -71.5
  },
  {
    "compound": "CN1C(=O)C(c2ccccc2)CC12CCN(CCN)CC2 (stereo unspecified)",
    "value.reported": 8.67
  },
  {
    "compound": "CSCC(C)(O)CNC(=O)c1ccc(Br)cc1C (stereo unspecified)",
    "value.reported": 1.57
  },
  {
    "compound": "Cc1cnc(C)c(N2CCCC(CO)(Cc3ccccc3C)C2)n1 (stereo unspecified)",
    "value.reported": -17.2
  },
  {
    "compound": "Cc1ncsc1C(=O)N1CCCC(c2noc(C(C)C)n2)C1 (stereo unspecified)",
    "value.reported": -2.04
  }
]

----------
# cytotoxicity at 10 µM per entry
Experiment: Toxicity liver stage against HepG2, at 10uM
Format: cell-based
Set-up: test concentration 10 uM, cell line HepG2-A16-CD81EGFP
Conditions: human, HepG2-A16-CD81EGFP cells; read-out: INHIBITION

[
  {
    "compound": "CC(CNC(=O)c1ccon1)Oc1cccc(Br)c1 (configuration not stated)",
    "cytotoxicity at 10 µM, %": -1.52
  },
  {
    "compound": "Cn1ccc(CN2CCC(COC3CCCC3)CC2)cc1=O",
    "cytotoxicity at 10 µM, %": -1.68
  },
  {
    "compound": "N#CCCN(C(=O)CCc1cccnc1)c1ccc2c(c1)OCCO2",
    "cytotoxicity at 10 µM, %": -5.34
  },
  {
    "compound": "COCCN1CCN(S(C)(=O)=O)Cc2cccnc21",
    "cytotoxicity at 10 µM, %": 5.7
  },
  {
    "compound": "CCOc1cccc(C2CC(=O)NCc3nc(N)sc32)c1 (configuration not stated)",
    "cytotoxicity at 10 µM, %": -9.23
  },
  {
    "compound": "CCCN1CCC(NCc2ccncc2)CC1",
    "cytotoxicity at 10 µM, %": -6.79
  },
  {
    "compound": "CS(=O)(=O)c1ccccc1N[C@@H]1c2ccccc2C[C@@H]1O",
    "cytotoxicity at 10 µM, %": -40.5
  },
  {
    "compound": "Cc1ccccc1OCn1ccc(C(=O)NCCN2CCOCC2)n1",
    "cytotoxicity at 10 µM, %": 8.02
  },
  {
    "compound": "COc1ccc([C@@H]2CN(Cc3cccnc3N)C[C@H]2N(C)C)cc1",
    "cytotoxicity at 10 µM, %": 1.54
  },
  {
    "compound": "COc1cccc2sc(N3CCN(C(=O)c4cc(C)on4)CC3)nc12",
    "cytotoxicity at 10 µM, %": 6.21
  },
  {
    "compound": "Cc1cc(CN2CCOC(C)(C(=O)N3CCOCC3)C2)no1 (configuration not stated)",
    "cytotoxicity at 10 µM, %": -24.2
  },
  {
    "compound": "CCC(=O)NCC(=O)Nc1ncc(I)cc1C",
    "cytotoxicity at 10 µM, %": 5.4
  }
]

----------
# cytotoxicity at 10 µM per entry
Experiment: Toxicity liver stage against HepG2, at 10uM
Type: cell-based
Parameters: test concentration 10 uM, cell line HepG2-A16-CD81EGFP
Settings: human, HepG2-A16-CD81EGFP cells; read-out: INHIBITION

[
  {
    "molecule": "CCO[C@@H]1C[C@H]2CN(S(=O)(=O)c3cccs3)CCN2C1",
    "cytotoxicity at 10 µM": "8.52%"
  },
  {
    "molecule": "CS(=O)(=O)N1CCN(C(=O)CN2CCCc3c(F)cc(F)cc32)CC1",
    "cytotoxicity at 10 µM": "-1.52%"
  },
  {
    "molecule": "Cc1cc(F)ccc1N1CCC(N2C[C@@H](CN(C)C)[C@@H](CO)C2)CC1",
    "cytotoxicity at 10 µM": "-12.1%"
  },
  {
    "molecule": "Cc1noc2nc3c(c(C(=O)/N=c4\\[nH]nc(C(C)C)s4)c12)CCC3",
    "cytotoxicity at 10 µM": "-6.53%"
  },
  {
    "molecule": "CC1CCN(C(=O)c2cn(-c3ccc(C(F)(F)F)cn3)nn2)CC1",
    "cytotoxicity at 10 µM": "-53.1%"
  },
  {
    "molecule": "CC(=O)N1CC(Cc2nccc3ccn(C)c23)C1",
    "cytotoxicity at 10 µM": "0.668%"
  },
  {
    "molecule": "CC1=Nc2c(c(O)nn2C(C)C)C(c2cnn(C)c2)S1 (stereo unspecified)",
    "cytotoxicity at 10 µM": "10.8%"
  },
  {
    "molecule": "O=C(CSC1CCc2ccccc2NC1=O)NCc1ccccc1 (stereo unspecified)",
    "cytotoxicity at 10 µM": "6.37%"
  },
  {
    "molecule": "COc1ccc2cccc(CC(=O)NCc3nccc(N)n3)c2c1",
    "cytotoxicity at 10 µM": "0.684%"
  },
  {
    "molecule": "COc1ccc(CC(C)Nc2cccc(F)c2)cc1 (stereo unspecified)",
    "cytotoxicity at 10 µM": "5.82%"
  },
  {
    "molecule": "CSCc1ccc(N2CCC(C(O)Cc3ccccc3)CC2)nc1 (stereo unspecified)",
    "cytotoxicity at 10 µM": "2.45%"
  }
]
